All values here come from ChEMBL document CHEMBL3879881.

Molecular target: Inhibitor of nuclear factor kappa-B kinase subunit beta (Homo sapiens)
Sequence (O14920 whole entry): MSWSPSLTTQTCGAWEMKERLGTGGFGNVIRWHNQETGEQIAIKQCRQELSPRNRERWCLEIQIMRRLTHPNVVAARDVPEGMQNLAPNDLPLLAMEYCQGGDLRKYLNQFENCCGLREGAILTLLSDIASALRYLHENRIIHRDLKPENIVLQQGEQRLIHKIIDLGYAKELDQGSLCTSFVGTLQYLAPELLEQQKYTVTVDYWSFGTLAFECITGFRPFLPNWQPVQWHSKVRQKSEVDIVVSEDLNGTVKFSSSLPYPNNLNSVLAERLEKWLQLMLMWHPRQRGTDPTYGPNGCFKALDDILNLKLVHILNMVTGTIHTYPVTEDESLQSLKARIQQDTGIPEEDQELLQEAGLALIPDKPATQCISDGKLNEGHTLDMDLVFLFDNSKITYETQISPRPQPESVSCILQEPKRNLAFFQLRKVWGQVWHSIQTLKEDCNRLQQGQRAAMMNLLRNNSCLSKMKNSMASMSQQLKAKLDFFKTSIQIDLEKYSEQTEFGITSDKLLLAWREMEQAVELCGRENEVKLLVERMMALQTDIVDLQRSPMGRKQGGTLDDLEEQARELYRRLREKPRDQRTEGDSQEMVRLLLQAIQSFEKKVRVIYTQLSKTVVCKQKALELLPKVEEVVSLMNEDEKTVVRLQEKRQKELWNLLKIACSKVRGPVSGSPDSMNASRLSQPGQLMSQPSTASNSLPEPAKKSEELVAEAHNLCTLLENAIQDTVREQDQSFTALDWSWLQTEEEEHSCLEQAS
Assay: Inhibition of human recombinant C-terminal FLAG-epitope-tagged IKK2 expressed in baculovirus using biotinylated IkappaBalpha peptide as substrate assessed as decrease in [gamma-33P]-ATP incorporation in substrate after 30 mins by scintillation counting method
For each of the compounds below, state its IC50.

For reference, reported IC50 for NC(=O)c1nn(-c2ccc(S(N)(=O)=O)cc2)c2c1CCc1ccc(NC(=O)Cc3ccccc3)cc1-2 stands at 1000 to 10000 nM

For reference, reported IC50 for NC(=O)c1nn(-c2ccc3c(c2)OCO3)c2c1CCc1ccc(NC(=O)CNC3CCCCC3)cc1-2 stands at 1000 to 10000 nM

For reference, reported IC50 for CN(C)C(=O)/C=C/c1ccc(-n2nc(C(N)=O)c3c2-c2cc(NS(C)(=O)=O)ccc2CC3)cc1 stands at 1000 to 10000 nM

For reference, reported IC50 for C[C@@H]1CN(c2cc(C(=O)Nc3ccc4c(c3)-c3c(c(C(N)=O)nn3-c3ccc(F)cc3)CC4)c(Cl)cn2)CCN1 stands at ≤ 1000 nM

For reference, reported IC50 for NC(=O)c1nn(-c2ccc3c(c2)OCO3)c2c1CCc1ccc(NC(=O)c3ccccc3OC(F)(F)F)cc1-2 stands at 1000 to 10000 nM

----------
Biological target: Inhibitor of nuclear factor kappa-B kinase subunit beta (Homo sapiens, UniProt O14920)
Experiment: Inhibition of human recombinant C-terminal FLAG-epitope-tagged IKK2 expressed in baculovirus using biotinylated IkappaBalpha peptide as substrate assessed as decrease in [gamma-33P]-ATP incorporation in substrate after 30 mins by scintillation counting method
For each of the compounds below, state its IC50.

For reference, reported IC50 for COc1cccc(C(=O)Nc2ccc3c(c2)-c2c(c(C(N)=O)nn2-c2ccc(S(N)(=O)=O)cc2)CC3)c1 stands at ≤ 1000 nM

For reference, reported IC50 for NC(=O)c1nn(-c2ccc(NC(=O)c3ccccc3)cc2)c2c1CCc1ccc(NC(=O)c3ccccc3Cl)cc1-2 stands at 1000 to 10000 nM

For reference, reported IC50 for NC(=O)c1nn(-c2ccc(S(=O)(=O)CC3CC3)cc2)c2c1CCc1ccc(NC(=O)c3ccccc3Cl)cc1-2 stands at 1000 to 10000 nM

For reference, reported IC50 for C=CCN(CC=C)S(=O)(=O)c1ccc(-n2nc(C(N)=O)c3c2-c2cc(N)ccc2CC3)cc1 stands at 1000 to 10000 nM

For reference, reported IC50 for CC1(C)OCC(COc2ccc(-n3nc(C(N)=O)c4c3-c3cc(NC(=O)c5cccnc5Cl)ccc3CC4)cc2)O1 (configuration not stated) stands at 1000 to 10000 nM

For reference, reported IC50 for CS(=O)(=O)c1ccc(-n2nc(C(N)=O)c3c2-c2cc(NC(=O)c4cc(Cl)ncc4Cl)ccc2CC3)cc1 stands at ≤ 1000 nM

For reference, reported IC50 for Cc1nnsc1C(=O)Nc1ccc2c(c1)-c1c(c(C(N)=O)nn1-c1ccc3c(c1)OCO3)CC2 stands at 1000 to 10000 nM

For reference, reported IC50 for CN1CCN(c2cc(C(=O)Nc3ccc4c(c3)-c3c(c(C(N)=O)nn3-c3ccncc3)CC4)c(Cl)cn2)CC1 stands at ≤ 1000 nM

For reference, reported IC50 for NC(=O)c1nn(-c2ccc3c(c2)OCO3)c2c1CCc1ccc(NC(=O)CN3CCCC3)cc1-2 stands at 1000 to 10000 nM

For reference, reported IC50 for CN(C)c1cccc2c(S(=O)(=O)Nc3ccc4c(c3)-c3c(c(C(N)=O)nn3-c3ccc(S(N)(=O)=O)cc3)CC4)cccc12 stands at 1000 to 10000 nM

For reference, reported IC50 for Cc1ccn2c(C)c(C(=O)Nc3ccc4c(c3)-c3c(c(C(N)=O)nn3-c3ccc(S(C)(=O)=O)cc3)CC4)nc2c1 stands at 1000 to 10000 nM

For reference, reported IC50 for NC(=O)c1nn(-c2ccc(-c3cccc(CO)c3)cc2)c2c1CCc1ccc(NC(=O)c3ccccc3Cl)cc1-2 stands at 1000 to 10000 nM

For reference, reported IC50 for CN(C)CCOc1ccc(-n2nc(C(N)=O)c3c2-c2cc(NC(=O)c4ccccc4Cl)ccc2CC3)cc1 stands at 1000 to 10000 nM

For reference, reported IC50 for NC(=O)c1nn(-c2ccc(C(F)(F)F)cc2)c2c1CCc1ccc(N)cc1-2 stands at 1000 to 10000 nM

For reference, reported IC50 for CCCS(=O)(=O)c1ccc(-n2nc(C(N)=O)c3c2-c2cc(N)ccc2CC3)cc1 stands at 1000 to 10000 nM

For reference, reported IC50 for CC(=O)Nc1ccc2c(c1)-c1c(c(C(N)=O)nn1-c1ccc(S(=O)(=O)N(C)C)cc1)CC2 stands at 1000 to 10000 nM

For reference, reported IC50 for CCNC(=O)Nc1ccc2c(c1)-c1c(c(C(N)=O)nn1-c1ccc(S(N)(=O)=O)cc1)CC2 stands at 1000 to 10000 nM
